I'd be grateful if you could share measured IC50 for these entries.
- tgt: Chk1 (Homo sapiens)
- Construct: purchased Upstate Biotechnology
- Sequence (O14757 whole entry): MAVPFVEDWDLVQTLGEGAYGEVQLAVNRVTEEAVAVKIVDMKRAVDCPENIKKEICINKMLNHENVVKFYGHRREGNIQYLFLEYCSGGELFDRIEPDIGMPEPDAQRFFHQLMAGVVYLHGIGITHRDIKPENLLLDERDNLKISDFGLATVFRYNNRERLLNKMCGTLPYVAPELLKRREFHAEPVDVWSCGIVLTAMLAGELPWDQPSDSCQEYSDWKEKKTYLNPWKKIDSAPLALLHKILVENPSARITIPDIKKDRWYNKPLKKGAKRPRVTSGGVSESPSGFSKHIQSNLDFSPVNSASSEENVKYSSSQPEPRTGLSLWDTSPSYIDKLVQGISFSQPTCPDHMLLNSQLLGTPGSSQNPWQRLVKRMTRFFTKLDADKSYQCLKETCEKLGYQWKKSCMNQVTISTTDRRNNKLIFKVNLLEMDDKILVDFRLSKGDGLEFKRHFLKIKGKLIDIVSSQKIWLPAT
- protocol summary: Chk1 kinase assay: incorporation of γ-33P ATP into immobilized myelin basic protein
- Assay type: biochemical
- study conditions: read-out: Chk1 IC50

[[record]]
line_notation = "CNC(=O)c1nc(-c2cccc(C(=O)NCc3ccc(N4CCN(C)CC4)cc3)c2)cnc1N"
observation_type = "IC50"
measurement = "1000 to 10000 nM"

[[record]]
line_notation = "CCNC(=O)c1nc(-c2cccc(C(=O)NCc3ccccc3)c2)cnc1N"
observation_type = "IC50"
measurement = "1000 to 10000 nM"

[[record]]
line_notation = "CNC(=O)c1nc(-c2cccc(C(=O)NCc3cc(Cl)ccc3C)c2)cnc1N"
observation_type = "IC50"
measurement = "50 to 1000 nM"

[[record]]
line_notation = "CNC(=O)c1nc(-c2cccc(OCCc3ccccc3)c2)cnc1N"
observation_type = "IC50"
measurement = "50 to 1000 nM"

[[record]]
line_notation = "CNC(=O)c1nc(-c2cccc(C(=O)NCc3ccc(OC(F)(F)F)cc3)c2)cnc1N"
observation_type = "IC50"
measurement = "50 to 1000 nM"


Below are some molecules; for each one, tell me its IC50.
1. Nc1ncc(-c2ccccc2)nc1C(=O)N[C@H]1CCc2ccccc21
2. CNC(=O)c1nc(-c2cccc(C(=O)NCc3cc(Cl)ccc3Cl)c2)cnc1N
3. CNC(=O)c1nc(-c2cccc(NS(C)(=O)=O)c2)cnc1N

result:
≥ 10000 nM
50 to 1000 nM
1000 to 10000 nM

// for each molecule in input: emit IC50
1. CNC(=O)c1nc(-c2cccc(NC(=O)Cc3ccccc3)c2)cnc1N
2. CNC(=O)c1nc(-c2cccc(NC(=O)C(c3ccccc3)c3ccccc3)c2)cnc1N
3. CCNC(=O)c1nc(-c2cccc(C(=O)NCc3c(F)cccc3Cl)c2)cnc1N
4. CNC(=O)c1nc(-c2cccc(CNCc3c(OC)cccc3OC)c2)cnc1N
5. CNC(=O)c1nc(-c2cccc(C(=O)NCc3cc(Br)ccc3F)c2)cnc1N
6. CNC(=O)c1nc(-c2cccc(C(N)=O)c2)cnc1N
7. CC[C@@H](NC(=O)c1cccc(-c2cnc(N)c(C(=O)NC)n2)c1)c1ccccc1
8. CNC(=O)c1nc(-c2cccc(OC)c2)cnc1N

result:
1. 50 to 1000 nM
2. 50 to 1000 nM
3. 1000 to 10000 nM
4. 50 to 1000 nM
5. 50 to 1000 nM
6. 1000 to 10000 nM
7. 1000 to 10000 nM
8. 1000 to 10000 nM

Return reported IC50 values for all items listed beneath this line.
1. CNC(=O)c1nc(-c2cccc(C(=O)NCc3ccc(N(C)C)cc3)c2)cnc1N
2. CNC(=O)c1nc(-c2cccc(C(=O)NCc3ccc(C(F)(F)F)cc3)c2)cnc1N
3. CNC(=O)c1nc(-c2cccc(C(=O)NCc3ccc(C)cc3)c2)cnc1N
4. CNC(=O)c1nc(-c2cccc(CNC(=O)COc3ccc(C(C)C)cc3)c2)cnc1N
5. CNC(=O)c1nc(-c2cccc(C(=O)NCCc3ccccc3Cl)c2)cnc1N
6. CNC(=O)c1nc(-c2cccc(NC(=O)Cc3ccc(C(F)(F)F)cc3)c2)cnc1N
7. CNC(=O)c1nc(-c2cccc(C(=O)NCc3cc(OC)cc(OC)c3)c2)cnc1N

result:
1. 50 to 1000 nM
2. 50 to 1000 nM
3. 50 to 1000 nM
4. 50 to 1000 nM
5. 50 to 1000 nM
6. 50 to 1000 nM
7. 50 to 1000 nM

Record IC50 for all entries; do not skip any.
1. CNC(=O)c1nc(-c2cccc(C(=O)NCc3ccccc3SC)c2)cnc1N
2. CNC(=O)c1nc(-c2cccc(N)c2)cnc1N
3. CNC(=O)c1nc(-c2cccc(C(=O)NC(C)(C)c3ccccc3)c2)cnc1N

result:
< 50 nM
50 to 1000 nM
1000 to 10000 nM

Please look at the items below and tell me IC50 for each one, in order.
1. CNC(=O)c1nc(-c2cccc(CNC(=O)c3ccc(C(C)C)cc3)c2)cnc1N
2. CNC(=O)c1nc(-c2cccc(NCc3ccccc3)c2)cnc1N
3. CNC(=O)c1nc(-c2ccc(O)cc2)cnc1N
4. CNC(=O)c1nc(-c2cccc(C(=O)N(Cc3ccccc3)Cc3ccccc3)c2)cnc1N

result:
50 to 1000 nM
50 to 1000 nM
50 to 1000 nM
1000 to 10000 nM
